# protein stability index values compiled below
B1: GLTSCR2 (parent)
chain: FQRRNMIEPRERAKFKRKYKVKLV

- Variants of: B1
- Protocol: protein stability index of a GFP-peptide fusion (GPS, HEK-293T) (PSI 1-6); higher = more stable;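 further: lentivirally expressed fusions sorted by FACS into six bins by GFP to DsRed ratio, PSI derived from sequencing read proportions per bin multiplied by bin number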
- Measurement setup: c terminus: a fixed tail appended
Observation type: protein stability index

Mutation code: P9V
Reading: 2.19
//
Mutation code: F15C
Reading: 2.67
//
Mutation code: K20H
Reading: 2.62
//
Mutation code: V24L
Reading: 1.92
//
Mutation code: E11F
Reading: 2.37
//
Mutation code: K20D
Reading: 2.09
//
Mutation code: P9W
Reading: 2.01
//
Mutation code: E8A
Reading: 2.7
//
Mutation code: E11M
Reading: 2.37
//
Mutation code: K14E
Reading: 2.74
//
Mutation code: K14N
Reading: 2.02
